TARGET_OF_ASSAY: Torsin-1A-interacting protein 2 (Homo sapiens)
PROTOCOL: LULL1 binders on small-molecule microarray, primary screen, cell lysate, human LULL1 lysate, 635/667 nm fluorescence (AID 1092);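 further: probe is lysate of COS7 cells overexpressing human LULL1; score merges per-feature 667 nm fluorescence with signal-to-noise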
EXPERIMENTAL_SETUP: hLULL1 lysate binding, 635 nm fluorescence, higher = more signal
QUANTITY_MEASURED: composite z-score
Answer as a number with no unit attached.

Illustrative cases are given below, each with its answer.
COMPOUND	TARGET_OF_ASSAY	MEASURED
CC1CC/C=C\[C@H]2OC34C=CCN(Cc5ccccc5)C(=O)[C@H]3N(CCCO)C(=O)[C@@H]4C2C(=O)O1 (stereo not given in full)	Torsin-1A-interacting protein 2 (Homo sapiens)	1.97
COCCOC(=O)N1C(=O)[C@@]2(c3cc(C#CC4(O)CCCCCC4)ccc31)[C@H](c1ccccc1OCCO)N1[C@H](c3ccccc3)[C@H](c3ccccc3)OC(=O)[C@H]1[C@@H]2C(=O)N1CCN(c2ncccn2)CC1	Torsin-1A-interacting protein 2 (Homo sapiens)	2.73

Ask: State measured composite z-score of the compound CC(C)N1C(=O)C[C@@](C(=O)NCC(F)(F)F)(c2ccc([N+](=O)[O-])cc2)[C@H]1c1ccc(CO)cc1 with Torsin-1A-interacting protein 2 (Homo sapiens).
Reply: 3.32

Ask: State measured composite z-score of the compound C=CCOC(=O)[C@H]1[C@@H]2C(=O)O[C@@H](c3ccccc3)[C@@H](c3ccccc3)N2[C@@H](c2ccc(OCCOC(=O)[C@@H]3C[C@@H]4C(=O)N[C@@H](CC(C)C)C(=O)N4[C@@H]3c3ccc(O)cc3)cc2)[C@]12C(=O)Nc1ccccc12 with Torsin-1A-interacting protein 2 (Homo sapiens).
Reply: 3.2

Ask: State measured composite z-score of the compound CCCCCN1CC=CC23O[C@@H]4/C=C\CCC(C)OC(=O)C4[C@H]2C(=O)N(C(C)CO)[C@@H]3C1=O (stereo not given in full) with Torsin-1A-interacting protein 2 (Homo sapiens).
Reply: 2.37

* * *

Known composite z-score of a selection of compounds
TARGET_OF_ASSAY: E3 ubiquitin-protein ligase XIAP (Homo sapiens) (UniProt P98170)
Sequence (P98170 whole entry, looked up): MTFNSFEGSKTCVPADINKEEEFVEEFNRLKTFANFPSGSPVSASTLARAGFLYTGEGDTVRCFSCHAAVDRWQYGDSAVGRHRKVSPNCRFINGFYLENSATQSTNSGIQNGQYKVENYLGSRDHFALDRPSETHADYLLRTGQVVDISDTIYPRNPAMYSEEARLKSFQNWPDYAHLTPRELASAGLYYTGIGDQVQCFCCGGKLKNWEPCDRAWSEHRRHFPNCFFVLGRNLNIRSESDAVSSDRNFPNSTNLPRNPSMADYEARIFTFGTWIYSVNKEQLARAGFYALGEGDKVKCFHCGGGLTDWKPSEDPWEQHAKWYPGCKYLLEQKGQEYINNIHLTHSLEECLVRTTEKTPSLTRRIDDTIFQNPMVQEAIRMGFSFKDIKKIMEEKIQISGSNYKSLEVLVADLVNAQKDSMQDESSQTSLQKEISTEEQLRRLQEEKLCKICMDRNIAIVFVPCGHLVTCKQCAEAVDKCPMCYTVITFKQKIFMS
PROTOCOL: XIAP binders, primary screen, biophysical, small-molecule microarray, fluorescence 635 nm (AID 1181);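 further: score merges 667 nm emission and signal to noise over triplicate slides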
EXPERIMENTAL_SETUP: small-molecule microarray binding, higher = more signal
Answer as a number with no unit attached.

Illustrative cases are given below, each with its answer.
COMPOUND	MEASURED
CC(C)NC(=O)[C@@]1(C)c2ccccc2C(=O)N(Cc2cc(C(F)(F)F)cc(C(F)(F)F)c2)[C@H]1c1ccc(CO)cc1	0.0868
C=CC[C@@]1(C(=O)NCCN2CCOCC2)N=C(c2ccc(OCCCO)cc2)O[C@@H]1c1ccccc1N=[N+]=[N-]	0.107
C=C(COC)C(=O)CC[C@@H](OC(C)=O)c1ccc(CO)o1	0.383
O=C(NCCN1CCOCC1)C1N=C(c2ccc(OCCCO)cc2)N(c2ccccc2)O1 (stereo unspecified)	0.172
COCCOC(=O)N1C(=O)[C@@]2(c3cc(C#CCC(C(=O)OC)C(=O)OC)ccc31)[C@H](c1ccccc1OCCO)N1[C@H](c3ccccc3)[C@H](c3ccccc3)OC(=O)[C@H]1[C@@H]2C(=O)NC[C@H](O)c1ccccc1	0.177

Ask: Please supply the value of reported composite z-score for the item C=CC[C@@]12N=C(c3ccc(OCCCO)cc3)O[C@@H]1c1ccccc1N(C)C2=O
Reply: 0.368
